test_name: Inhibition of PTBP1 (unknown origin) incubated for 1 hr by colloidal coomassie staining based LC-MS/MS analysis
measured_metric: IC50

# input For the molecule CCNC(=O)C[C@@H]1N=C(c2ccc(Cl)cc2)c2cc(OC)ccc2-n2c(C)nnc21 , what IC50 is on record?
# output > 10 µM

----------
test_name: Binding affinity against TUBA4A (unknown origin) assessed as apparent dissociation constant incubated for 1 hr by colloidal coomassie staining based LC-MS/MS analysis
measured_metric: Kd
Form entry: enter the amount, then its unit.

# input For the compound CCNC(=O)C[C@@H]1N=C(c2ccc(Cl)cc2)c2cc(OC)ccc2-n2c(C)nnc21 , what Kd is on record?
# output 102 nM

----------
test_name: Inhibition of PUS1 (unknown origin) incubated for 1 hr by colloidal coomassie staining based LC-MS/MS analysis
pIC50: −log10 of the molar value.
measured_metric: pIC50

# input For the compound CCNC(=O)C[C@@H]1N=C(c2ccc(Cl)cc2)c2cc(OC)ccc2-n2c(C)nnc21 , what pIC50 is on record?
# output < 5.00

----------
test_name: Inhibition of POLR2B (unknown origin) incubated for 1 hr by colloidal coomassie staining based LC-MS/MS analysis
measured_metric: pIC50
Just the number, please; pIC50 means minus log10 of the concentration in mol/L.

# input For the compound CCNC(=O)C[C@@H]1N=C(c2ccc(Cl)cc2)c2cc(OC)ccc2-n2c(C)nnc21 , what pIC50 is on record?
# output 6.82

----------
test_name: Inhibition of LAS1L (unknown origin) incubated for 1 hr by colloidal coomassie staining based LC-MS/MS analysis
measured_metric: IC50 (nM)
Answer format: numeric, nM implied, no suffix.

# input For the compound CCNC(=O)C[C@@H]1N=C(c2ccc(Cl)cc2)c2cc(OC)ccc2-n2c(C)nnc21 , what IC50 is on record?
# output 270

----------
test_name: Inhibition of RPS15A (unknown origin) incubated for 1 hr by colloidal coomassie staining based LC-MS/MS analysis
measured_metric: pIC50
Just the number, please; pIC50 means minus log10 of the concentration in mol/L.

# input For the molecule CCNC(=O)C[C@@H]1N=C(c2ccc(Cl)cc2)c2cc(OC)ccc2-n2c(C)nnc21 , what pIC50 is on record?
# output 5.86

----------
test_name: Inhibition of OGT (unknown origin) incubated for 1 hr by colloidal coomassie staining based LC-MS/MS analysis
measured_metric: pIC50
Just the number, please; pIC50 means minus log10 of the concentration in mol/L.

# input For the compound CCNC(=O)C[C@@H]1N=C(c2ccc(Cl)cc2)c2cc(OC)ccc2-n2c(C)nnc21 , what pIC50 is on record?
# output 6.32

----------
test_name: Inhibition of CCNL2 (unknown origin) incubated for 1 hr by colloidal coomassie staining based LC-MS/MS analysis
measured_metric: IC50 (nM)
Answer format: numeric, nM implied, no suffix.

# input For the compound CCNC(=O)C[C@@H]1N=C(c2ccc(Cl)cc2)c2cc(OC)ccc2-n2c(C)nnc21 , what IC50 is on record?
# output 50

----------
test_name: Inhibition of RFC1 (unknown origin) incubated for 1 hr by colloidal coomassie staining based LC-MS/MS analysis
measured_metric: IC50 (nM)
Answer format: numeric, nM implied, no suffix.

# input For the compound CCNC(=O)C[C@@H]1N=C(c2ccc(Cl)cc2)c2cc(OC)ccc2-n2c(C)nnc21 , what IC50 is on record?
# output 50
